From: PubChem BioAssay (NCI)

Quick reference: TGI of the listed items.
Test system: UACC-62 melanoma
testName: NCI tumour cell line growth inhibition, 48 h

Completed entries (count: 5):
compound	targetDesc	valueMeasured
Cc1c(-c2ccccc2)cc(O)c2nc3ccccc3n12	UACC-62 melanoma	> 100 µM
Cc1nnc(-c2ccc(C)c(-c3ccc(C(=O)Nc4cccc(C#N)c4)cc3)c2)o1	UACC-62 melanoma	> 25 µM
NC1=NN(c2ccccc2)C(=O)C1C(=O)CCC(=O)Nc1cccc(Cl)c1 (stereo unspecified)	UACC-62 melanoma	> 100 µM
CCCCC1(NN=C2CCCCC2)C(=O)N(c2ccccc2)N(c2ccccc2)C1=O	UACC-62 melanoma	> 100 µM
O=c1oc2ccccc2c(Nc2ccc3c(c2)Sc2ccccc2O3)c1[N+](=O)[O-]	UACC-62 melanoma	> 100 µM

API: the following record is the query input.
Given the compound COc1ccc(CC2COc3cc(OC)cc(OC)c3C2=O)cc1 (stereo unspecified) , write its reported TGI. > 100 µM

###

Listed below: TGI values for each entry.
Test system: U251 CNS
testName: NCI tumour cell line growth inhibition, 48 h

Examples with answers:
compound	TGI
ONC1=Nc2cc(Cl)ccc2C(=S)N2CSCC12 (centres undefined)	> 100 µM
N#CCC(=O)N/N=C1/C(=O)N(c2ccc(Cl)cc2)C(=O)C(=O)C1c1nc2ccccc2s1 (centres undefined)	> 100 µM
O=C1COc2cc(NC(=S)Nc3ccccc3)ccc2N1	> 100 µM

Now examine the next entry.
Quote TGI reported for CCOC(=O)CCC(NC(=O)c1ccc(Nc2nc3ccc(C(F)(F)F)cc3nc2-c2ccccc2)cc1)C(=O)OCC (centres undefined) please. > 100 µM

###

A collection of molecules and their measured TGI
System: CAKI-1 renal
testName: NCI tumour cell line growth inhibition, 48 h

Example entries begin here.
molecule	attributeMeasured	valueMeasured
CNC(=O)OCc1nc(SSC(C)(C)C)n(C)c1COC(=O)NC	TGI	3.94 µM
O=NNc1ccc2ccccc2n1	TGI	> 100 µM
NCCCNCCS	TGI	> 100 µM
O=C(c1ccccc1)c1ccc2n[se]nc2c1	TGI	> 100 µM
C=CCn1c(N)c(C#N)c(C#N)c1CCC	TGI	> 100 µM

Identify TGI associated with the molecule N#Cc1c(-c2ccc(Cl)cc2)c2c(n(C3OC(CO)C(O)C(O)C3O)c1=S)CCCC2 (stereo unspecified) > 100 µM

Specify TGI for `CN(C)Cc1cc(C(F)(F)F)ccc1C(O)(c1ccccc1)c1ccccc1` and stop. 31.2 µM

Name the recorded TGI of the molecule listed here: `COc1ccc(/C=C2\N=C(N3CCCCC3)NC2=O)cc1` > 100 µM

Assign TGI to the following record: `O=C1C=C(Nc2ccccc2C(=O)CC(=O)C(=O)Nc2cccc([N+](=O)[O-])c2)c2ccccc2C1=O` > 100 µM

Tell us which TGI value is on record for `CN(C)/C=C/C(=CC=[N+](C)C)/C=C/N(C)C` > 100 µM

Please indicate TGI recorded for O=C(/C=C/c1ccc(O)c(O)c1)OCC(OC(=O)/C=C/c1ccc(O)c(O)c1)C(=O)O (stereo unspecified) > 100 µM

State, in one line, measured TGI of `CCOc1cc(C(C)(C)C)ccc1C1=N[C@H](c2ccc(Cl)cc2)[C@H](c2ccc(Cl)cc2)N1C(=O)N1CCN(CC#Cc2cccc3c2CN([C@@H]2CCC(=O)NC2=O)C3=O)CC1` 9.59 µM

Give the measured TGI for C=C(C)C1CCC(C(=O)O)CC1 (stereo unspecified) > 100 µM

// fetch TGI given entry CCCC1(CC(=O)O)OCCc2c1[nH]c1ccccc21 (stereo unspecified) > 100 µM

Answer with reported TGI of COC(=O)C1=C(OC(=O)/C(=C/c2ccccc2)c2ccc(Cl)cc2Cl)C(C(=O)OC)[C@@]2(O)[C@@H](C(=O)OC)[C@H](C)C[C@@H]1[C@@H]2C(=O)OC (stereo partly specified) > 100 µM

Look up and report measured TGI for this entry: `COc1ccc2c(c1)C(=O)CCc1cc(OC)c(OC)c(OC)c1-2` > 100 µM
